- STUDY_TARGET: BAP1 (UniProt Q92560)
- Sequence (Q92560 whole entry, the tested form may be a part): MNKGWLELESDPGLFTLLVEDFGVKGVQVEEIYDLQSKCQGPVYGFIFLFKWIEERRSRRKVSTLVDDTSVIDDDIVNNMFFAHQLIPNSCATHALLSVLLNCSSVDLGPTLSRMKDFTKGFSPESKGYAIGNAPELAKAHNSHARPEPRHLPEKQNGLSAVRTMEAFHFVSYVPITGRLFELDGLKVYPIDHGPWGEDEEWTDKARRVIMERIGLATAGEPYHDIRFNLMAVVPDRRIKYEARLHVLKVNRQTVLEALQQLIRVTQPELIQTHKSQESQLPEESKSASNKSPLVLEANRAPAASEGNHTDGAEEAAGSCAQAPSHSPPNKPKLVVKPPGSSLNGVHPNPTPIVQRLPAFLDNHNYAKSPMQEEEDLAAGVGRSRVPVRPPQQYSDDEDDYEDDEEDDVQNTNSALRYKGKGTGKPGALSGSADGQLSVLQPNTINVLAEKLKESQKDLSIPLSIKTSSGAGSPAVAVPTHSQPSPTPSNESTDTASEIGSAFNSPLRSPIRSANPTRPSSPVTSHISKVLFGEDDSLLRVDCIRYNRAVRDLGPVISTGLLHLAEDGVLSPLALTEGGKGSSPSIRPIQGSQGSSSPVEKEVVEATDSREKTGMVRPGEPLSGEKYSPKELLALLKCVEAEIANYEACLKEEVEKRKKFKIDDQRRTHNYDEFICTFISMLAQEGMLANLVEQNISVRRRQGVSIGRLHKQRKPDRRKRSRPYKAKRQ
- ASSAY_EXPLANATION: log2 ratio of Biotin-Ahx-Ub-VS probe labelling (fragment/DMSO); higher = less target engagement (more negative = stronger competition), active = hit call of the paper (q ≤ 0.05, log2 ratio ≤ -1)
- MEASUREMENT_CONDITIONS: compound concentration: 200 uM; treatment time: 3 h
Recorded log2 ratio of Biotin-Ahx-Ub-VS probe labelling by entry
Give the figure only, with no unit attached.

O=C(CCl)N(C1CCCC1)C1CCS(=O)(=O)C1 (stereo not drawn)    -0.0673
O=C(CCl)N1CCC(S(=O)(=O)c2ccc(F)cc2)CC1    -1.46
O=C(CCl)N1CCC(c2nc3ccccc3o2)CC1    -1.64
O=C(CCl)N1CCC(C(O)c2ccc(F)cc2)CC1 (stereo not drawn)    -0.334

Give the reported log2 ratio of Biotin-Ahx-Ub-VS probe labelling for CCN(C(=O)CCl)C1CCCCC1 (system: BAP1 (UniProt Q92560)).
0.174

And the next one, Cl.O=C(CCl)NCc1cc2c(nc1O)CCCC2 ?
-1.87

Request: COc1ccc(-c2csc(NC(=O)CCl)n2)cc1
-2.94

* * *

- STUDY_TARGET: ALG13 (UniProt Q9NP73)
- Sequence (whole entry): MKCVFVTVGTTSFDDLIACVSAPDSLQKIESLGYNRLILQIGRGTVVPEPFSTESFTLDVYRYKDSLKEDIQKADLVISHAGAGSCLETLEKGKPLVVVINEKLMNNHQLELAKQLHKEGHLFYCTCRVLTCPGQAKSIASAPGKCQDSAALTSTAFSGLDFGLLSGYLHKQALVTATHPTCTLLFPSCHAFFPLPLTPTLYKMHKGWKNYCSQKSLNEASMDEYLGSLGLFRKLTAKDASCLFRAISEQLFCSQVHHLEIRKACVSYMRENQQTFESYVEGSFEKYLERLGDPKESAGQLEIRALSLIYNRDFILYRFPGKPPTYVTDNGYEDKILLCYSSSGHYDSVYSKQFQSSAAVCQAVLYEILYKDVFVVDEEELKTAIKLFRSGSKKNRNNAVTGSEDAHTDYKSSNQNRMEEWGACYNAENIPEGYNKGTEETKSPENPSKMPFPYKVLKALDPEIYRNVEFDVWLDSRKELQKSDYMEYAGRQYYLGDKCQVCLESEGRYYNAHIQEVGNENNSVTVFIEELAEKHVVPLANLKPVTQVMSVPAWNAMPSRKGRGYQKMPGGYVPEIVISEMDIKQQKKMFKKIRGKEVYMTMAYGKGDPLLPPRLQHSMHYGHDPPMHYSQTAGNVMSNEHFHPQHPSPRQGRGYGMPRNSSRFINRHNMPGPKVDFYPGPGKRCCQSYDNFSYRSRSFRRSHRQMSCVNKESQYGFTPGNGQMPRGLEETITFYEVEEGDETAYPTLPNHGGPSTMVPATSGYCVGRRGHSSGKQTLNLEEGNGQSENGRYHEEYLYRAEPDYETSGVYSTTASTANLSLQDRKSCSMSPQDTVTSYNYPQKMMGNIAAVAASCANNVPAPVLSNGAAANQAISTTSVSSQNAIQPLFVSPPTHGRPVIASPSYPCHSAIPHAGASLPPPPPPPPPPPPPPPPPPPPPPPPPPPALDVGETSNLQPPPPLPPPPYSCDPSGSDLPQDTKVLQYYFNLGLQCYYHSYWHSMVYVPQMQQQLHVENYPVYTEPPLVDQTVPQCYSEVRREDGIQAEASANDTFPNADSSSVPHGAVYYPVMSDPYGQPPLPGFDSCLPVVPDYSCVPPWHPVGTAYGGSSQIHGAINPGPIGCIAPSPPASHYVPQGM
- ASSAY_EXPLANATION: log2 ratio of Biotin-Ahx-Ub-VS probe labelling (fragment/DMSO); higher = less target engagement (more negative = stronger competition), active = hit call of the paper (q ≤ 0.05, log2 ratio ≤ -1)
- MEASUREMENT_CONDITIONS: compound concentration: 200 uM; treatment time: 3 h
Entries and their measured log2 ratio of Biotin-Ahx-Ub-VS probe labelling follow.
Please state the value as a number alone, without comment.

Observe how each entry below is paired with its result.
CCC1c2ccsc2CCN1C(=O)CCl (centres undefined)    0.127
CCCn1nccc1NC(=O)CCl    0.12
O=C(CCl)NC1CCCCNC1=O (centres undefined)    -0.0613
Cl.O=C(CCl)N1CCCC(c2ncc[nH]2)C1 (centres undefined)    0.0212
CN(Cc1nc2ccccc2[nH]1)C(=O)CCl.Cl    0.0974

Suppose we examine the molecule Cc1noc(C)c1CNC(=O)CCl ; what log2 ratio of Biotin-Ahx-Ub-VS probe labelling value has been reported?
-0.968

Would you mind doing Cl.O=C(CCl)N1CC(c2ccc(Br)cn2)C1 as well?
0.23

Try Cc1ncsc1CCNC(=O)CCl next.
-1.18

What do you have for Cc1cc(Cl)ccc1NC(=O)CCl ?
-0.00605

And the next one, COc1ccc(C2CCCN2C(=O)CCl)c(OC)c1 (centres undefined) ?
-0.266

Follow-up entry: Cl.O=C(CCl)N1CCn2ncc(O)c2C1
0.326

And what about the molecule CN(C)S(=O)(=O)c1ccccc1CNC(=O)CCl ?
0.242

Item: Cl.O=C(CCl)NCCN1CCc2ccccc21
-0.000809

Moving on to O=C(CCl)Nc1cccc(C(=O)N2CCSCC2)c1
0.254

Query Cl.O=C(CCl)N[C@H]1C[C@@H](n2cccn2)C1 next
-0.266

Please answer likewise for CN(CCC(O)c1ccc(Br)cc1)C(=O)CCl (centres undefined)
-0.222

Next entry: N#Cc1ccccc1N1CCN(C(=O)CCl)CC1
-0.383

Now consider O=C(CCl)N1CCOCC1C1CC1 (centres undefined) and answer again.
-1.36

Also check Cc1n[nH]c(=O)c2c(NC(=O)CCl)oc(C)c12
0.211

Try the molecule O=C(CCl)N1CCOC(c2cccc(F)c2)C1 (centres undefined)
-0.261

Please give the result for O=C(CCl)NCc1noc(C2CC2)n1 too.
0.174

Quick one: N#Cc1ccc(CNC(=O)CCl)cc1
-0.583

Okay, and COc1ccc(CN(C)C(=O)CCl)cc1 ?
-0.466

Now give it for Cc1ccc(CC(CO)CNC(=O)CCl)cc1 (centres undefined) too.
-0.289

Param item: Cc1nc(CN2CCN(C(=O)CCl)CC2)cs1
0.271

And what about the molecule O=C(CCl)NCc1ccc(Cl)cc1 ?
0.0638

Can you check Cc1cnc2[nH]cc(CCNC(=O)CCl)c2c1 next?
-0.0473

Okay, and Cc1ncc2c(n1)CCN(C(=O)CCl)C2 ?
-0.466

# repeat for O=C(CCl)N1CCC(c2nc3ccccc3o2)CC1
-0.377

* * *

- STUDY_TARGET: UniProt Q9P2H5
- Sequence (Q9P2H5 whole entry, the tested form may be a part): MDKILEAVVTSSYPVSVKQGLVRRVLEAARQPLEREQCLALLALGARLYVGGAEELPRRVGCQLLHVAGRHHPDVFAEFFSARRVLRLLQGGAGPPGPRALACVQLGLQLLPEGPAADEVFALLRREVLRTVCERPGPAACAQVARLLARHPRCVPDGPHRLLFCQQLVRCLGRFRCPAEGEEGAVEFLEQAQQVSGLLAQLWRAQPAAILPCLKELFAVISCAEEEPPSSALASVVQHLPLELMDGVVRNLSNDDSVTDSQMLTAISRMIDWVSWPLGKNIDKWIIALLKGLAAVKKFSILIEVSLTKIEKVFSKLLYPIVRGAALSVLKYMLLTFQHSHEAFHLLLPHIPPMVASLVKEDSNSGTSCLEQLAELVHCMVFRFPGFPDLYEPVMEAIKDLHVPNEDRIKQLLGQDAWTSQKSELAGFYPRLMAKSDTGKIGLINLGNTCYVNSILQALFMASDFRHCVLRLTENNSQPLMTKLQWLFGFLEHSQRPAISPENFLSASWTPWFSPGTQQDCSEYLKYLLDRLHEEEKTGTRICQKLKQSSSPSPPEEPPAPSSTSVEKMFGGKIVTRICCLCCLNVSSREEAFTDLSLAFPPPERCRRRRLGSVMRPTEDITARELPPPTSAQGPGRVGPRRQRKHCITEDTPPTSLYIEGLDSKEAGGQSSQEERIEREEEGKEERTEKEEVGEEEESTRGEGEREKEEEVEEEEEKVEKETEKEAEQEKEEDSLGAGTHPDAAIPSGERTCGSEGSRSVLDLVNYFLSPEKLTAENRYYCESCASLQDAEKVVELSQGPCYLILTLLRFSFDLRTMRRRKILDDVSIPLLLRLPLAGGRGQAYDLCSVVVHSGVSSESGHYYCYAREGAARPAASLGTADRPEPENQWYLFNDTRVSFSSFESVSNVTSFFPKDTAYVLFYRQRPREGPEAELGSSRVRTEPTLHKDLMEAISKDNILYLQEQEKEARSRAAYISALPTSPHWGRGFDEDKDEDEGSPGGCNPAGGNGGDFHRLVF
- ASSAY_EXPLANATION: log2 ratio of Biotin-Ahx-Ub-VS probe labelling (fragment/DMSO); higher = less target engagement (more negative = stronger competition), active = hit call of the paper (q ≤ 0.05, log2 ratio ≤ -1)
- MEASUREMENT_CONDITIONS: compound concentration: 200 uM; treatment time: 3 h
Outcome label depends on log2 ratio of Biotin-Ahx-Ub-VS probe labelling relative to -0.3: at/above gives Fulfilled, below gives Not fulfilled.

Some solved cases for reference:
O=C(CCl)Nc1cccc(NC(=O)c2ccccc2)c1    Fulfilled
COCC[C@@H](NC(=O)CCl)c1ccccc1    Fulfilled
Cc1cccc(NC(=O)[C@@H]2CCCN2C(=O)CCl)n1    Not fulfilled
O=C(CCl)NCc1cccc(F)c1    Fulfilled
N#Cc1ccc(Cl)cc1NC(=O)CCl    Fulfilled

Decide: log2 ratio of Biotin-Ahx-Ub-VS probe labelling of Cl.Cn1ncc2c1CCCC2NC(=O)CCl (centres undefined) >= -0.3?
Fulfilled

Then this compound: C#Cc1cccc(NC(=O)CCl)c1
Fulfilled

# iterate: O=C(CCl)Nc1cc(Cl)ccc1C(=O)O
Fulfilled

Lookup Cc1ccc2nnc(CNC(=O)CCl)n2c1
Not fulfilled

Also need Cc1noc(C)c1CNC(=O)CCl , thanks.
Not fulfilled

Also NS(=O)(=O)c1ccc(Cl)c(NC(=O)CCl)c1 ?
Fulfilled

Now try Cc1ncc2c(n1)CCN(C(=O)CCl)C2 .
Not fulfilled

And for Cl.O=C(CCl)N1CCc2ncncc2C1 ?
Fulfilled

* * *

- STUDY_TARGET: USP46 (UniProt P62068)
- Sequence (P62068 whole entry, the tested form may be a part): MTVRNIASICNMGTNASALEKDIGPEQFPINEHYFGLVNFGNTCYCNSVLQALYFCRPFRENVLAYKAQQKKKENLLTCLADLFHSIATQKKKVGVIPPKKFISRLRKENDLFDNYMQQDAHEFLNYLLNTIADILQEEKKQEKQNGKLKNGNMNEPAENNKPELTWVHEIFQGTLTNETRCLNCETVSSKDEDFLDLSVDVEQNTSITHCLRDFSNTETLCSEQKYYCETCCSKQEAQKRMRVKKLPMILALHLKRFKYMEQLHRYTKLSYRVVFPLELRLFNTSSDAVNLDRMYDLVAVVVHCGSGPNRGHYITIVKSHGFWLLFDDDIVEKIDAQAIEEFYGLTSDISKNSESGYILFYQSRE
- ASSAY_EXPLANATION: log2 ratio of Biotin-Ahx-Ub-VS probe labelling (fragment/DMSO); higher = less target engagement (more negative = stronger competition), active = hit call of the paper (q ≤ 0.05, log2 ratio ≤ -1)
- MEASUREMENT_CONDITIONS: compound concentration: 200 uM; treatment time: 3 h
OBSERVED_PROPERTY: log2 ratio of Biotin-Ahx-Ub-VS probe labelling
Reply: number alone, nothing else.

COc1ccc(-c2csc(NC(=O)CCl)n2)cc1    -0.355
C[C@@H](NC(=O)CCl)c1cccc(C#N)c1    0.013
O=C(CCl)N1CCOCC1C1CC1 (configuration not stated)    0.00778
O=C(CCl)N1CCC(=C(F)CO)C1    0.0599
CC1Cc2ccccc2N1C(=O)CCl (configuration not stated)    -0.226
Cc1c(C#N)c(NC(=O)CCl)n(Cc2ccco2)c1C    -0.16

As a next step, examine the molecule that follows.
Enter reported log2 ratio of Biotin-Ahx-Ub-VS probe labelling observed with USP46 (UniProt P62068) for O=C(CCl)N1CCC(c2noc3cc(F)ccc23)CC1
-0.343
